Biological target: T1, 4H3427-bN
T1 chain: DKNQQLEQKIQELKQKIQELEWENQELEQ
Assay: two-hybrid library CCNG1;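 note: natural log of median RNA to DNA barcode read ratio; higher means stronger binding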
MEASURED_ATTRIBUTE: interaction score

Solved cases (2 shown):
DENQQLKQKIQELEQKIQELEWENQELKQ [4H1828-bN]    -0.728
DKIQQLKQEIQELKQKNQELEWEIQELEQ [4H2673-bN]    -1.55

A: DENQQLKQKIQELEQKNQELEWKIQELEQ [4H1845-bN]
B: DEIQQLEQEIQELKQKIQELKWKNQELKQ [4H112-bN]
C: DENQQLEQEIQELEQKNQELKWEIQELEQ [4H1081-bN]
D: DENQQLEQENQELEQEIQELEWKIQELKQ [4H1158-bN]
Arrange the 4 entries by interaction score so the values rise. Please reply with the labels ordered as requested. Many thanks.
A, C, D, B
